# Test system: Cellular protein-DNA complex formation
# testDetails: Protein-linked DNA break assay (cellular protein-DNA complex formation)
# Type: cell-based
# runParameters: Etoposide given as 100; NA^1 not active at 50 uM, NA^2 not active at 100 uM
Provide the recorded Cellular protein-DNA complex formation for the entries that follow.

Prompt: GET /values?readout=Cellular protein-DNA complex formation&item= COc1cc([C@@H]2c3cc4c(cc3[C@@H](Nc3ccc(N=Cc5ccc(C(=O)O[C@@H](C(=O)O[C@H]6C[C@@]7(O)[C@@H](OC(=O)c8ccccc8)[C@@H]8[C@]9(OC(C)=O)CO[C@@H]9C[C@H](O)[C@@]8(C)C(=O)[C@H](OC(C)=O)C(=C6C)C7(C)C)[C@@H](NC(=O)c6ccccc6)c6ccccc6)cc5)cc3)[C@H]3COC(=O)[C@H]23)OCO4)cc(OC)c1O [Compound 15]
Response: 25 +/− 11%

Prompt: Now the compound COc1cc([C@@H]2c3cc4c(cc3[C@@H](O[C@@H]3O[C@@H]5CO[C@@H](C)O[C@H]5[C@H](O)[C@H]3O)[C@H]3COC(=O)[C@H]23)OCO4)cc(OC)c1O [Etoposide, etoposide, reference compound]
Response: 100%

Prompt: Same lookup for COc1cc([C@@H]2c3cc4c(cc3[C@@H](N=Cc3ccc(C(=O)O[C@@H](C(=O)O[C@H]5C[C@@]6(O)[C@@H](OC(=O)c7ccccc7)[C@@H]7[C@]8(OC(C)=O)CO[C@@H]8C[C@H](O)[C@@]7(C)C(=O)[C@H](OC(C)=O)C(=C5C)C6(C)C)[C@@H](NC(=O)c5ccccc5)c5ccccc5)cc3)[C@H]3COC(=O)[C@H]23)OCO4)cc(OC)c1O [Compound 12] , please.
Response: 8 +/− 2%

Prompt: Further, for COc1cc([C@@H]2c3cc4c(cc3[C@@H](Nc3ccc([N+](=O)[O-])cc3)[C@H]3COC(=O)[C@H]23)OCO4)cc(OC)c1O [GL-331, reference compound] ?
Response: 134 +/− 7%

* * *

Give EC50 for every item shown.
# Tested on: renal cancer (CAKI-1)
# testDetails: in vitro cytotoxicity assay, CAKI-1
# runParameters: read-out: Cytotoxicity (ED50) CAKI-1; CAKI-1; drug exposure 3 days

Prompt: State the recorded EC50 for this entry: C/C=C(\C)C(=O)N[C@@H](c1ccccc1)[C@@H](OC(=O)c1ccc(C=N[C@@H]2c3cc4c(cc3[C@@H](c3cc(OC)c(O)c(OC)c3)[C@H]3C(=O)OC[C@@H]32)OCO4)cc1)C(=O)O[C@H]1C[C@@]2(O)[C@@H](OC(=O)c3ccccc3)[C@@H]3[C@]4(OC(C)=O)CO[C@@H]4C[C@H](O)[C@@]3(C)C(=O)[C@H](OC(C)=O)C(=C1C)C2(C)C [Compound 14]
Response: > 5000 nM

Prompt: Would you kindly repeat that for COc1cc([C@@H]2c3cc4c(cc3[C@@H](Nc3ccc(N=Cc5ccc(C(=O)O[C@@H](C(=O)O[C@H]6C[C@@]7(O)[C@@H](OC(=O)c8ccccc8)[C@@H]8[C@]9(OC(C)=O)CO[C@@H]9C[C@H](O)[C@@]8(C)C(=O)[C@H](OC(C)=O)C(=C6C)C7(C)C)[C@@H](NC(=O)c6ccccc6)c6ccccc6)cc5)cc3)[C@H]3COC(=O)[C@H]23)OCO4)cc(OC)c1O [Compound 15] ?
Response: > 4000 nM

Prompt: What about this compound? C/C=C(\C)C(=O)N[C@@H](c1ccccc1)[C@@H](OC(=O)c1ccc(C=Nc2ccc(N[C@@H]3c4cc5c(cc4[C@@H](c4cc(OC)c(O)c(OC)c4)[C@H]4C(=O)OC[C@@H]43)OCO5)cc2)cc1)C(=O)O[C@H]1C[C@@]2(O)[C@@H](OC(=O)c3ccccc3)[C@@H]3[C@]4(OC(C)=O)CO[C@@H]4C[C@H](O)[C@@]3(C)C(=O)[C@H](OC(C)=O)C(=C1C)C2(C)C [Compound 16]
Response: > 10000 nM

Prompt: Request: COc1cc([C@@H]2c3cc4c(cc3[C@@H](N=Cc3ccc(C(=O)O[C@@H](C(=O)O[C@H]5C[C@@]6(O)[C@@H](OC(=O)c7ccccc7)[C@@H]7[C@]8(OC(C)=O)CO[C@@H]8C[C@H](O)[C@@]7(C)C(=O)[C@H](OC(C)=O)C(=C5C)C6(C)C)[C@@H](NC(=O)c5ccccc5)c5ccccc5)cc3)[C@H]3COC(=O)[C@H]23)OCO4)cc(OC)c1O [Compound 12]
Response: > 250 nM

Prompt: Lookup COc1cc([C@@H]2c3cc4c(cc3[C@@H](Nc3ccc([N+](=O)[O-])cc3)[C@H]3COC(=O)[C@H]23)OCO4)cc(OC)c1O [GL-331, reference compound]
Response: 1800 nM

* * *

# Tested on: lung carcinoma (A-549)
# testDetails: in vitro cytotoxicity assay, A549
# runParameters: read-out: Cytotoxicity (ED50) A549; A549; drug exposure 3 days; NA = not active
endpoint: EC50 (µM)
I only need the number, in µM, no unit after it.

Prompt: What value of measured EC50 is listed for COc1cc([C@@H]2c3cc4c(cc3[C@@H](Nc3ccc([N+](=O)[O-])cc3)[C@H]3COC(=O)[C@H]23)OCO4)cc(OC)c1O [GL-331, reference compound] ?
Response: 0.48

Prompt: Follow-up item: COc1cc([C@@H]2c3cc4c(cc3[C@@H](Nc3ccc(N=Cc5ccc(C(=O)O[C@@H](C(=O)O[C@H]6C[C@@]7(O)[C@@H](OC(=O)c8ccccc8)[C@@H]8[C@]9(OC(C)=O)CO[C@@H]9C[C@H](O)[C@@]8(C)C(=O)[C@H](OC(C)=O)C(=C6C)C7(C)C)[C@@H](NC(=O)c6ccccc6)c6ccccc6)cc5)cc3)[C@H]3COC(=O)[C@H]23)OCO4)cc(OC)c1O [Compound 15]
Response: 2.8

Prompt: Next: C/C=C(\C)C(=O)N[C@@H](c1ccccc1)[C@@H](OC(=O)c1ccc(C=Nc2ccc(N[C@@H]3c4cc5c(cc4[C@@H](c4cc(OC)c(O)c(OC)c4)[C@H]4C(=O)OC[C@@H]43)OCO5)cc2)cc1)C(=O)O[C@H]1C[C@@]2(O)[C@@H](OC(=O)c3ccccc3)[C@@H]3[C@]4(OC(C)=O)CO[C@@H]4C[C@H](O)[C@@]3(C)C(=O)[C@H](OC(C)=O)C(=C1C)C2(C)C [Compound 16]
Response: 3.55

Prompt: C/C=C(\C)C(=O)N[C@@H](c1ccccc1)[C@@H](OC(=O)c1ccc(C=N[C@@H]2c3cc4c(cc3[C@@H](c3cc(OC)c(O)c(OC)c3)[C@H]3C(=O)OC[C@@H]32)OCO4)cc1)C(=O)O[C@H]1C[C@@]2(O)[C@@H](OC(=O)c3ccccc3)[C@@H]3[C@]4(OC(C)=O)CO[C@@H]4C[C@H](O)[C@@]3(C)C(=O)[C@H](OC(C)=O)C(=C1C)C2(C)C [Compound 14] , same question.
Response: 0.7

Prompt: // next record COc1cc([C@@H]2c3cc4c(cc3[C@@H](N=Cc3ccc(C(=O)O[C@@H](C(=O)O[C@H]5C[C@@]6(O)[C@@H](OC(=O)c7ccccc7)[C@@H]7[C@]8(OC(C)=O)CO[C@@H]8C[C@H](O)[C@@]7(C)C(=O)[C@H](OC(C)=O)C(=C5C)C6(C)C)[C@@H](NC(=O)c5ccccc5)c5ccccc5)cc3)[C@H]3COC(=O)[C@H]23)OCO4)cc(OC)c1O [Compound 12]
Response: 0.21

* * *

# System: melanoma cancer (SKMEL-2)
# testDetails: in vitro cytotoxicity assay, SK-MEL-2
# runParameters: read-out: Cytotoxicity (ED50) SK-MEL-2; SK-MEL-2; drug exposure 3 days; NA = not active
endpoint: EC50 (µM)
Numeric answer only, unit µM assumed.

Prompt: Requested read-out: EC50. Entry: COc1cc([C@@H]2c3cc4c(cc3[C@@H](Nc3ccc([N+](=O)[O-])cc3)[C@H]3COC(=O)[C@H]23)OCO4)cc(OC)c1O [GL-331, reference compound]
Response: 5.95

* * *

For each of the compounds below, state its EC50.
# Tested on: breast cancer (MCF-7)
# testDetails: in vitro cytotoxicity assay, MCF-7
# runParameters: read-out: Cytotoxicity (ED50) MCF-7; MCF-7; drug exposure 3 days
# Description: Biological Assay. The in vitro cytotoxicity assay was carried out according to procedures described in Rubinstein et al. (P. Ferguson et al., Cancer Res. 1988, 48, 5956-5964). […] Initial seeding densities varied among the cell lines to ensure a final absorbance of 1-2.5 A562 units. […]

Prompt: What value of EC50 has been recorded for this entry: COc1cc([C@@H]2c3cc4c(cc3[C@@H](Nc3ccc(N=Cc5ccc(C(=O)O[C@@H](C(=O)O[C@H]6C[C@@]7(O)[C@@H](OC(=O)c8ccccc8)[C@@H]8[C@]9(OC(C)=O)CO[C@@H]9C[C@H](O)[C@@]8(C)C(=O)[C@H](OC(C)=O)C(=C6C)C7(C)C)[C@@H](NC(=O)c6ccccc6)c6ccccc6)cc5)cc3)[C@H]3COC(=O)[C@H]23)OCO4)cc(OC)c1O [Compound 15]
Response: 1860 nM

Prompt: Then this compound: COc1cc([C@@H]2c3cc4c(cc3[C@@H](N=Cc3ccc(C(=O)O[C@@H](C(=O)O[C@H]5C[C@@]6(O)[C@@H](OC(=O)c7ccccc7)[C@@H]7[C@]8(OC(C)=O)CO[C@@H]8C[C@H](O)[C@@]7(C)C(=O)[C@H](OC(C)=O)C(=C5C)C6(C)C)[C@@H](NC(=O)c5ccccc5)c5ccccc5)cc3)[C@H]3COC(=O)[C@H]23)OCO4)cc(OC)c1O [Compound 12]
Response: 330 nM

Prompt: Another compound to look at: C/C=C(\C)C(=O)N[C@@H](c1ccccc1)[C@@H](OC(=O)c1ccc(C=N[C@@H]2c3cc4c(cc3[C@@H](c3cc(OC)c(O)c(OC)c3)[C@H]3C(=O)OC[C@@H]32)OCO4)cc1)C(=O)O[C@H]1C[C@@]2(O)[C@@H](OC(=O)c3ccccc3)[C@@H]3[C@]4(OC(C)=O)CO[C@@H]4C[C@H](O)[C@@]3(C)C(=O)[C@H](OC(C)=O)C(=C1C)C2(C)C [Compound 14]
Response: 1230 nM

Prompt: Can you handle COc1cc([C@@H]2c3cc4c(cc3[C@@H](Nc3ccc([N+](=O)[O-])cc3)[C@H]3COC(=O)[C@H]23)OCO4)cc(OC)c1O [GL-331, reference compound] next?
Response: 9290 nM

Prompt: And C/C=C(\C)C(=O)N[C@@H](c1ccccc1)[C@@H](OC(=O)c1ccc(C=Nc2ccc(N[C@@H]3c4cc5c(cc4[C@@H](c4cc(OC)c(O)c(OC)c4)[C@H]4C(=O)OC[C@@H]43)OCO5)cc2)cc1)C(=O)O[C@H]1C[C@@]2(O)[C@@H](OC(=O)c3ccccc3)[C@@H]3[C@]4(OC(C)=O)CO[C@@H]4C[C@H](O)[C@@]3(C)C(=O)[C@H](OC(C)=O)C(=C1C)C2(C)C [Compound 16] ?
Response: > 5000 nM
